Item-by-item account of pIC50
target of assay: HLA-B1502 (Homo sapiens, UniProt P01889, A329T/A93T/A95T/C349S/D201E/D98Y/E187L/E204Q/E69M/E70A/H137Y/K202T/L119I/Q94N/R155S/R180L/S121R/S35A/S48A/T118I/V306I/V36M/Y140S/Y91S)
assay comment: Competitive peptide binding assay, CIR-B1502
run conditions: HMy2.CIR-B1502 cells, reference Cy5-[…], class from inhibition at 5 and 15 μM, flow cytometry MFI; read-out: Binding affinity with HLA-B1502
pIC50: −log10 of the molar value. Peptide text beside a SMILES is read from it.

compound	pIC50
CC[C@H](C)[C@H](NC(=O)CNC(=O)[C@H](CC(=O)O)NC(=O)[C@H](CCCCN)NC(=O)[C@H](CC(N)=O)NC(=O)[C@H](C)NC(=O)CN)C(=O)N[C@H](C(=O)N[C@@H](Cc1c[nH]c2ccccc12)C(=O)O)[C@@H](C)CC [Epitope Y301] (H-GANKDGIIW-OH; N-terminus and C-terminus assumed)	< 4.82
CC(C)C[C@H](NC(=O)[C@H](CC(=O)O)NC(=O)[C@@H](NC(=O)[C@H](CC(=O)O)NC(=O)[C@@H](NC(=O)[C@H](Cc1c[nH]cn1)NC(=O)[C@H](CO)NC(=O)[C@H](CCC(=O)O)NC(=O)[C@H](C)N)C(C)C)[C@@H](C)O)C(=O)O [Epitope Y198] (H-AESHVDTDL-OH; N-terminus and C-terminus assumed)	< 4.82

====

target of assay: HLA-B1501 (Homo sapiens, UniProt P01889, A329T/A93T/A95T/C349S/D201E/D98Y/E187L/E204Q/E69M/E70A/K202T/N87E/Q94N/R155S/R180W/S121R/S35A/S48A/V306I/V36M/Y140S/Y91S)
assay comment: Competitive peptide binding assay, CIR-B1501
run conditions: HMy2.CIR-B1501 cells, reference Cy5-[…], class from inhibition at 5 and 15 μM, flow cytometry MFI; read-out: Binding affinity with HLA-B1501
Peptide text beside a SMILES is read from it.

compound	IC50
CSCC[C@H](NC(=O)[C@H](C)NC(=O)[C@@H]1CCCN1C(=O)[C@H](CC(=O)O)NC(=O)[C@H](C)NC(=O)[C@H](C)NC(=O)[C@H](Cc1ccc(O)cc1)NC(=O)[C@@H](NC(=O)[C@@H](N)CC(C)C)C(C)C)C(=O)O [Epitope Y165] (H-LVYAADPAM-OH; N-terminus and C-terminus assumed)	> 15 µM
CC(C)[C@H](NC(=O)[C@@H](N)Cc1ccccc1)C(=O)N[C@@H](CO)C(=O)N[C@@H](CC(N)=O)C(=O)NCC(=O)N[C@H](C(=O)N[C@@H](Cc1c[nH]cn1)C(=O)N[C@@H](Cc1c[nH]c2ccccc12)C(=O)N[C@@H](Cc1ccccc1)C(=O)O)[C@@H](C)O [Epitope Y250] (H-FVSNGTHWF-OH; N-terminus and C-terminus assumed)	> 15 µM
CSCC[C@H](NC(=O)[C@H](CO)NC(=O)[C@H](CCC(N)=O)NC(=O)[C@H](CCC(N)=O)NC(=O)[C@H](CC(C)C)NC(=O)[C@H](CCC(N)=O)NC(=O)[C@H](CCCCN)NC(=O)[C@H](CO)NC(=O)[C@@H](N)Cc1ccccc1)C(=O)O [Epitope Y135] (H-FSKQLQQSM-OH; N-terminus and C-terminus assumed)	< 5 µM
CC(C)C[C@H](N)C(=O)N[C@H](C(=O)N[C@@H](CCCCN)C(=O)N1CCC[C@H]1C(=O)N[C@@H](CO)C(=O)N[C@@H](Cc1ccccc1)C(=O)N[C@@H](Cc1ccc(O)cc1)C(=O)N[C@H](C(=O)N[C@@H](Cc1ccc(O)cc1)C(=O)O)C(C)C)C(C)C [Epitope Y125] (H-LVKPSFYVY-OH; N-terminus and C-terminus assumed)	< 5 µM
CC[C@H](C)[C@H](NC(=O)CNC(=O)[C@H](CC(=O)O)NC(=O)[C@H](CCCCN)NC(=O)[C@H](CC(N)=O)NC(=O)[C@H](C)NC(=O)CNC(=O)[C@H](Cc1ccc(O)cc1)NC(=O)[C@@H]1CCCN1C(=O)[C@@H](N)CC(C)C)C(=O)O [Epitope Y273] (H-LPYGANKDGI-OH; N-terminus and C-terminus assumed)	> 15 µM
CC(C)C[C@H](NC(=O)[C@H](CC(=O)O)NC(=O)[C@H](CCC(N)=O)NC(=O)[C@@H](NC(=O)[C@@H](N)CO)[C@@H](C)O)C(=O)N[C@@H](Cc1ccccc1)C(=O)N[C@@H](CC(C)C)C(=O)N1CCC[C@H]1C(=O)N[C@@H](Cc1ccccc1)C(=O)O [Epitope Y249] (H-STQDLFLPF-OH; N-terminus and C-terminus assumed)	5 to 15 µM

====

target of assay: HLA-C0102 (Homo sapiens, UniProt P10321, A176E/A330V/A35S/A97T/C350S/D114A/D33F/L171W/L180R/L218V/M285V/M309V/M331V/P208H/Q277E/Q291P/R121W/R243W/R30K/S123C/S140Y/S297R/T329A/T363A/V272M/V319A)
assay comment: Competitive peptide binding assay, CIR-C0102
run conditions: HMy2.CIR-C0102 cells, reference Cy5-[…], class from inhibition at 5 and 15 μM, flow cytometry MFI; read-out: Binding affinity with HLA-C0102
pIC50: −log10 of the molar value. Peptide text beside a SMILES is read from it.
Item-by-item account of pIC50
outcome measure: pIC50

compound	recorded result
CC(C)C[C@H](NC(=O)[C@H](CC(C)C)NC(=O)[C@H](Cc1ccccc1)NC(=O)[C@@H](NC(=O)[C@H](CCCNC(=N)N)NC(=O)[C@@H]1CCCN1C(=O)[C@H](CCC(N)=O)NC(=O)[C@H](CC(C)C)NC(=O)[C@@H](N)Cc1ccc(O)cc1)[C@@H](C)O)C(=O)O [Epitope M35] (H-YLQPRTFLL-OH; N-terminus and C-terminus assumed)	< 4.82
CC(C)[C@H](NC(=O)[C@H](CC(N)=O)NC(=O)[C@H](Cc1ccc(O)cc1)NC(=O)[C@H](C)NC(=O)[C@@H](N)CCCCN)C(=O)N[C@H](C(=O)N[C@@H](CCC(N)=O)C(=O)N[C@@H](C)C(=O)N[C@@H](Cc1ccccc1)C(=O)O)[C@@H](C)O [Epitope M11] (H-KAYNVTQAF-OH)	4.82 to 5.30

====

target of assay: HLA-B3501 (Homo sapiens, UniProt P01889, A329T/A93T/A95T/C349S/D201E/D98Y/E176V/E187L/E204Q/E69T/I218V/K202T/L119I/Q94N/R155S/R180L/S121R/S35A/S48A/T118I/V127L/V306I/V36M/Y140S/Y91F)
assay comment: Competitive peptide binding assay, CIR-B3501
run conditions: HMy2.CIR-B3501 cells, reference Cy5-[…], class from inhibition at 5 and 15 μM, flow cytometry MFI; read-out: Binding affinity with HLA-B3501
pIC50: −log10 of the molar value. Peptide text beside a SMILES is read from it.

compound	pIC50
C[C@H](NC(=O)CNC(=O)[C@H](C)NC(=O)[C@@H](NC(=O)[C@@H](N)Cc1c[nH]c2ccccc12)[C@@H](C)O)C(=O)N[C@@H](C)C(=O)N[C@@H](C)C(=O)N[C@@H](Cc1ccc(O)cc1)C(=O)N[C@@H](Cc1ccc(O)cc1)C(=O)O [Epitope Y174] (H-WTAGAAAYY-OH; N-terminus and C-terminus assumed)	< 4.82
CSCC[C@H](NC(=O)[C@H](CCSC)NC(=O)[C@H](CO)NC(=O)[C@H](Cc1ccccc1)NC(=O)[C@H](Cc1c[nH]cn1)NC(=O)[C@H](CCCCN)NC(=O)[C@H](CCCNC(=N)N)NC(=O)[C@H](CC(C)C)NC(=O)[C@@H](N)Cc1ccc(O)cc1)C(=O)O [Epitope Y28] (H-YLRKHFSMM-OH; N-terminus and C-terminus assumed)	4.82 to 5.30
CC(C)C[C@H](NC(=O)[C@H](CC(C)C)NC(=O)[C@H](CC(C)C)NC(=O)[C@H](C)NC(=O)[C@H](CC(C)C)NC(=O)[C@H](C)NC(=O)[C@H](C)NC(=O)[C@H](CC(=O)O)NC(=O)CN)C(=O)O [Epitope Y65] (H-GDAALALLL-OH; N-terminus and C-terminus assumed)	< 4.82
CSCC[C@H](NC(=O)[C@H](C)NC(=O)[C@@H]1CCCN1C(=O)[C@H](CC(=O)O)NC(=O)[C@H](C)NC(=O)[C@H](C)NC(=O)[C@H](Cc1ccc(O)cc1)NC(=O)[C@@H](NC(=O)[C@@H](N)CC(C)C)C(C)C)C(=O)O [Epitope Y165] (H-LVYAADPAM-OH; N-terminus and C-terminus assumed)	> 5.30
CC[C@H](C)[C@H](NC(=O)[C@H](CC(C)C)NC(=O)[C@H](CS)NC(=O)CNC(=O)[C@H](C)NC(=O)[C@H](CCCNC(=N)N)NC(=O)[C@@H](NC(=O)[C@H](CCC(N)=O)NC(=O)[C@@H](N)Cc1ccccc1)[C@@H](C)O)C(=O)O [Epitope Y89] (H-FQTRAGCLI-OH; N-terminus and C-terminus assumed)	< 4.82
CC(C)C[C@H](NC(=O)[C@H](CC(N)=O)NC(=O)[C@H](CCCCN)NC(=O)[C@@H](NC(=O)[C@H](CCCNC(=N)N)NC(=O)[C@H](CO)NC(=O)[C@H](Cc1ccc(O)cc1)NC(=O)[C@@H](NC(=O)[C@@H](N)Cc1ccc(O)cc1)C(C)C)C(C)C)C(=O)O [Epitope Y3] (H-YVYSRVKNL-OH; N-terminus and C-terminus assumed)	< 4.82
CC(C)C[C@H](N)C(=O)N1CCC[C@H]1C(=O)N[C@@H](CC(N)=O)C(=O)N[C@@H](CC(N)=O)C(=O)N[C@H](C(=O)N[C@@H](C)C(=O)N[C@@H](CO)C(=O)N[C@@H](Cc1c[nH]c2ccccc12)C(=O)N[C@@H](Cc1ccccc1)C(=O)O)[C@@H](C)O [Epitope Y17] (H-LPNNTASWF-OH; N-terminus and C-terminus assumed)	> 5.30
CC[C@H](C)[C@H](NC(=O)[C@@H](NC(=O)[C@H](CCC(=O)O)NC(=O)[C@H](CCC(=O)O)NC(=O)[C@@H](N)Cc1c[nH]cn1)[C@@H](C)O)C(=O)N[C@@H](Cc1ccc(O)cc1)C(=O)N[C@@H](CC(N)=O)C(=O)N[C@@H](CC(C)C)C(=O)N[C@@H](CC(C)C)C(=O)O [Epitope Y199] (H-HEETIYNLL-OH; N-terminus and C-terminus assumed)	> 5.30
CC[C@H](C)[C@H](NC(=O)[C@H](CO)NC(=O)[C@H](CCC(N)=O)NC(=O)[C@H](CO)NC(=O)[C@H](C)NC(=O)[C@@H](N)C(C)C)C(=O)N[C@H](C(=O)N[C@@H](C)C(=O)N[C@@H](Cc1ccc(O)cc1)C(=O)O)[C@@H](C)CC [Epitope Y151] (H-VASQSIIAY-OH; N-terminus and C-terminus assumed)	> 5.30
CSCC[C@H](NC(=O)[C@H](CCCCN)NC(=O)CN)C(=O)N[C@@H](CCCCN)C(=O)N[C@@H](CC(=O)O)C(=O)N[C@@H](CC(C)C)C(=O)N[C@@H](CO)C(=O)N1CCC[C@H]1C(=O)N[C@@H](CCCNC(=N)N)C(=O)N[C@@H](Cc1c[nH]c2ccccc12)C(=O)O [Epitope Y224] (H-GKMKDLSPRW-OH; N-terminus and C-terminus assumed)	< 4.82
CC(C)[C@H](NC(=O)[C@H](CC(N)=O)NC(=O)[C@H](Cc1ccc(O)cc1)NC(=O)[C@H](C)NC(=O)[C@@H](N)CCCCN)C(=O)N[C@H](C(=O)N[C@@H](CCC(N)=O)C(=O)N[C@@H](C)C(=O)N[C@@H](Cc1ccccc1)C(=O)O)[C@@H](C)O [Epitope Y62] (H-KAYNVTQAF-OH)	> 5.30
CC(C)C[C@H](NC(=O)[C@@H](NC(=O)[C@H](CCCNC(=N)N)NC(=O)[C@H](CO)NC(=O)[C@@H](NC(=O)[C@H](C)NC(=O)[C@@H](N)C(C)C)[C@@H](C)O)[C@@H](C)O)C(=O)N[C@@H](CO)C(=O)N[C@@H](Cc1ccc(O)cc1)C(=O)O [Epitope Y158] (H-VATSRTLSY-OH; N-terminus and C-terminus assumed)	4.82 to 5.30
